Source: ChEMBL document CHEMBL3396996

inhibition reference
- STUDY SYSTEM: 2-heptyl-4(1H)-quinolone synthase PqsD (Pseudomonas aeruginosa) (UniProt A0A0C7ACN7)
- Sequence (whole entry): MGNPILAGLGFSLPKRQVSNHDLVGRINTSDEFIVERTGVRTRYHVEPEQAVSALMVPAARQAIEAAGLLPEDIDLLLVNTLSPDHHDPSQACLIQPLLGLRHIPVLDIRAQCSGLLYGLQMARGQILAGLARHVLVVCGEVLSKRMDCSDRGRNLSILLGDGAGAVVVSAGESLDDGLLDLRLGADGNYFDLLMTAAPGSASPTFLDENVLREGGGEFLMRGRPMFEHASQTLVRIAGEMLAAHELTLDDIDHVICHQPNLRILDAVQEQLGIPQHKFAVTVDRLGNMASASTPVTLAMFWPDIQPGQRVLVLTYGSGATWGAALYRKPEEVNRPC
- EXPERIMENTAL DETAILS: Inhibition of Pseudomonas aeruginosa recombinant PqsD expressed in Escherichia coli BL21 (lambdaDE3) using ACoA/beta-ketodecanoic acid as substrate at 50 uM after 10 mins

INPUT SMILES	inhibition
O=C(O)/C=C/c1ccoc1	12%
COc1cc(/C=C/C(=O)O)ccc1O	< 10%
COC(=O)/C=C/c1ccccc1	< 10%
